Test system: barley powdery mildew fungus (Erysiphe graminis)
Experiment: Test Example 2: control effect against barley powdery mildew by foliage application
Type: in vivo
Conditions: wettable powder diluted to 100 ppm, 10 mL per pot foliage spray on barley; inoculated day after; 7 days after inoculation
experimental.endpoint: evaluation value of control effect (from control value, lesion area percentage)
Form rule: numeric answer, no unit written next to it.

Example results:
{"columns": ["compound", "value.measured"],
 "data": [
  ["Cc1nn(C)c(F)c1C(=O)N(C(=O)c1cc(Cl)no1)c1ccccc1C(C)CC(C)C (centres unmarked)", 4],
  ["CC(C)CC(C)c1ccccc1N(C(=O)c1cccnc1C(F)(F)F)C(=O)c1snc(Cl)c1Cl (centres unmarked)", 5],
  ["Cc1nc(C(F)(F)F)c(C(=O)N(C(=O)c2snc(Cl)c2Cl)c2c(Br)cc(OC(F)(F)F)cc2Br)s1", 4],
  ["Cc1nnsc1C(=O)N(C(=O)c1c(C)nn(C)c1F)c1ccccc1C(C)CC(C)C (centres unmarked)", 4],
  ["CC1OC(C)(C)c2cccc(N(C(=O)c3cn(C)nc3C(F)F)C(=O)c3snnc3C(F)F)c21 (centres unmarked)", 4]
]}

The reported barley powdery mildew fungus (Erysiphe graminis) evaluation value of control effect (from control value, lesion area percentage) of Cc1nc(C(F)F)c(C(=O)N(C(=O)c2onc(Cl)c2Cl)c2ccccc2C(C)CC(C)C)s1 (centres unmarked) is 5

Summary: Cc1nn(C)c(Cl)c1C(=O)N(C(=O)c1snc(Cl)c1Cl)c1cccc2c1C(C)OC2(C)C (centres unmarked) , barley powdery mildew fungus (Erysiphe graminis), evaluation value of control effect (from control value, lesion area percentage) = 4

Readout evaluation value of control effect (from control value, lesion area percentage) for Cc1nn(C)c(F)c1C(=O)N(C(=O)c1scnc1C(F)(F)F)c1ccccc1C(C)CC(C)C (centres unmarked) , test system barley powdery mildew fungus (Erysiphe graminis), was 4

These entries and their values trace back to patent US20210007356A1.
